// reported SH2 binding enrichment per item
- experimentalSystem: Grb2 SH2 (UniProt P62993)
- Sequence (P62993 whole entry, looked up): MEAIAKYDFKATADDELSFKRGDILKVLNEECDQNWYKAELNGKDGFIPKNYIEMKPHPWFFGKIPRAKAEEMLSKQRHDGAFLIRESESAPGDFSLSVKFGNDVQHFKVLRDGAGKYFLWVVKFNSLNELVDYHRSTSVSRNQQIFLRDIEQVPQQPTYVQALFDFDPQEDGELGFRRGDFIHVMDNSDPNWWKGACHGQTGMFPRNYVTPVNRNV
- protocol: SH2 binding enrichment of the phosphorylated peptide, bacterial display (enrichment ratio); higher = better substrate or ligand; peptides without Tyr show the background

{"querySequence": "HQEPVCSVAFS [TBL1X_Y509_Y509C]", "SH2 binding enrichment": 1.12}
{"querySequence": "CLMILYRLKER [PTPRR_Y249]", "SH2 binding enrichment": 1.25}
{"querySequence": "RIVRKYKKVRF [F8_Y442_G439V]", "SH2 binding enrichment": 0.652}
{"querySequence": "YEDTLYTVLHR [UNC13D_Y61_A59T]", "SH2 binding enrichment": 0.761}
{"querySequence": "NLMPAYFKCIQ [CYP21A2_Y190_YF]", "SH2 binding enrichment": 0.904}
{"querySequence": "QRTMKYTTATE [MCCC1_Y41_G46E]", "SH2 binding enrichment": 0.768}
{"querySequence": "IFGEEYEEQPR [ZMYM2_Y1033_V1028I]", "SH2 binding enrichment": 0.819}
{"querySequence": "ALTDNYMFLVI [HAGH_Y61_YF]", "SH2 binding enrichment": 0.68}
{"querySequence": "IYETDYYQKGG [INSR_Y1189_R1191Q]", "SH2 binding enrichment": 0.915}
{"querySequence": "VDSLRYIYPKL [EIF2B3_Y92_A87V]", "SH2 binding enrichment": 0.88}
{"querySequence": "MSSLPYMKMIF [SLC4A11_Y853]", "SH2 binding enrichment": 1.21}
{"querySequence": "SESSFYKSLNL [NGEF_Y289_A286S_YF]", "SH2 binding enrichment": 0.775}
{"querySequence": "RVKTPYSLKRW [BMPR2_Y979]", "SH2 binding enrichment": 1.95}
{"querySequence": "KPLMPYMRYSR [SMARCE1_Y73]", "SH2 binding enrichment": 0.78}
{"querySequence": "RFGRKYKKVRF [F8_Y442_I438F]", "SH2 binding enrichment": 0.724}
{"querySequence": "SLNEGYARDFD [FBP1_Y216]", "SH2 binding enrichment": 1.06}
{"querySequence": "CTTIHYNYMCK [TP53_Y234_N239K]", "SH2 binding enrichment": 1.45}
{"querySequence": "CVGGFYGGCNE [CTSC_Y352_Y347C]", "SH2 binding enrichment": 1.01}
{"querySequence": "GGSSPYSRRLA [CDK13_Y351_P356A]", "SH2 binding enrichment": 0.875}
{"querySequence": "DFLSSYSAVNE [OAT_Y85_Q90E]", "SH2 binding enrichment": 0.864}
{"querySequence": "KSIDEYLKLVG [RASAL2_Y381_E379D]", "SH2 binding enrichment": 0.992}
{"querySequence": "DHTVNYVLKCR [PLEKHG4_Y1068_R1064H]", "SH2 binding enrichment": 0.67}
{"querySequence": "CSEETYRLMLQ [RET_Y981_M980T]", "SH2 binding enrichment": 0.643}
{"querySequence": "RVKPIYFHTQG [AR_Y916_K911R]", "SH2 binding enrichment": 2.11}
{"querySequence": "RDVEQYVNNVN [PCDH19_Y1097_L1094V]", "SH2 binding enrichment": 2.37}
{"querySequence": "LARDIYKNDYY [ROS1_Y2110]", "SH2 binding enrichment": 1.02}
{"querySequence": "SKEPFYVRCIK [MYO1D_Y586_YF]", "SH2 binding enrichment": 0.8}
{"querySequence": "CTIIHYNYMCN [TP53_Y234_T231I]", "SH2 binding enrichment": 1.76}
{"querySequence": "VPVPGYTKLPE [SPRR3_Y146]", "SH2 binding enrichment": 0.635}

* * *

// reported phosphorylation enrichment per item
- System: c-Src;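 also: 11-residue human phosphosite peptides and single-mutation variants displayed on the E. coli surface, counted by deep sequencing, each peptide's frequency after selection divided by its frequency in the unselected input library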;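 also: frequency after pTyr selection over input frequency; kinase dosed for 20-30% of maximal phosphorylation in three min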
- protocol: phosphorylation enrichment, bacterial display (enrichment ratio); higher = better substrate or ligand; peptides without Tyr show the background
measuredQuantity: phosphorylation enrichment

{"querySequence": "HNVAIYEGYAL [ACTC1_Y168_P166A]", "measuredQuantity": "phosphorylation enrichment", "numericValue": 17.1}
{"querySequence": "ETESPYQELQG [TYROBP_Y91]", "measuredQuantity": "phosphorylation enrichment", "numericValue": 1.52}
{"querySequence": "LASLIYNFILF [AQP6_Y231_V234I]", "measuredQuantity": "phosphorylation enrichment", "numericValue": 12.7}
{"querySequence": "FDRREYSRFEK [ITGB7_Y758_YF]", "measuredQuantity": "phosphorylation enrichment", "numericValue": 0.411}
{"querySequence": "FRQNVYIPGSN [PCDHGA1_Y895_YF]", "measuredQuantity": "phosphorylation enrichment", "numericValue": 0.435}
{"querySequence": "GLRFGYGVLGG [KRTAP20-2_Y15_YF]", "measuredQuantity": "phosphorylation enrichment", "numericValue": 0.434}
{"querySequence": "NTGLDYIKFTW [HRH1_Y386]", "measuredQuantity": "phosphorylation enrichment", "numericValue": 0.612}
{"querySequence": "GIVKAYYVRAR [AIPL1_Y267]", "measuredQuantity": "phosphorylation enrichment", "numericValue": 0.415}
{"querySequence": "HNQDDYSFPSR [LDLR_Y845_G844D_YF]", "measuredQuantity": "phosphorylation enrichment", "numericValue": 0.633}
{"querySequence": "RRIHSYRSHLW [VHL_Y112_G114S]", "measuredQuantity": "phosphorylation enrichment", "numericValue": 0.439}
{"querySequence": "VPVNGYQPVPA [ROR2_Y824]", "measuredQuantity": "phosphorylation enrichment", "numericValue": 0.413}
{"querySequence": "ADCRYYTFPQM [GAMT_Y223_A224T]", "measuredQuantity": "phosphorylation enrichment", "numericValue": 4.77}
{"querySequence": "KKCTRYIDCAL [ASPA_Y64_D68A]", "measuredQuantity": "phosphorylation enrichment", "numericValue": 0.371}
{"querySequence": "KDQGGYAMHQD [MAPT_Y29_T30A]", "measuredQuantity": "phosphorylation enrichment", "numericValue": 0.487}
{"querySequence": "EDSEFYKAFEE [CASQ2_Y179_YF]", "measuredQuantity": "phosphorylation enrichment", "numericValue": 0.567}
{"querySequence": "ADKSAYLMGLN [MYH7_Y386]", "measuredQuantity": "phosphorylation enrichment", "numericValue": 0.535}
{"querySequence": "CTTIHYNHMCN [TP53_Y234_Y236H]", "measuredQuantity": "phosphorylation enrichment", "numericValue": 0.422}
{"querySequence": "HELFVYKCDEN [DOCK3_Y548_YF]", "measuredQuantity": "phosphorylation enrichment", "numericValue": 1.18}
{"querySequence": "TLGPFYPSLLF [CRYAA_Y18_R21L]", "measuredQuantity": "phosphorylation enrichment", "numericValue": 0.455}
{"querySequence": "FADGVYLALEE [DUOX2_Y70_Q71L_YF]", "measuredQuantity": "phosphorylation enrichment", "numericValue": 2.47}
{"querySequence": "NIKKEYAKMVQ [PMS2_Y181]", "measuredQuantity": "phosphorylation enrichment", "numericValue": 0.312}
{"querySequence": "INSLKYAFNIS [EIF2B5_Y583_YF]", "measuredQuantity": "phosphorylation enrichment", "numericValue": 0.379}
{"querySequence": "RFVFFYSFLLK [PTEN_Y178_YF]", "measuredQuantity": "phosphorylation enrichment", "numericValue": 1.05}
{"querySequence": "HSQEDYFECFQ [ZIM2_Y411]", "measuredQuantity": "phosphorylation enrichment", "numericValue": 0.79}
{"querySequence": "QKNVSYVSRVS [TASOR_Y1043_T1046R]", "measuredQuantity": "phosphorylation enrichment", "numericValue": 0.457}
{"querySequence": "HNVPICEGFAL [ACTC1_Y168_Y168C_YF]", "measuredQuantity": "phosphorylation enrichment", "numericValue": 0.621}
{"querySequence": "HTLIKYTDGDQ [PUS7L_Y94]", "measuredQuantity": "phosphorylation enrichment", "numericValue": 1.09}
{"querySequence": "KFEDVYVGICL [B3GALNT1_Y269]", "measuredQuantity": "phosphorylation enrichment", "numericValue": 2.92}
{"querySequence": "PCLLRYLQLDF [ASB10_Y457_R453C]", "measuredQuantity": "phosphorylation enrichment", "numericValue": 0.502}
{"querySequence": "PVVKLYATDGR [RP1_Y199]", "measuredQuantity": "phosphorylation enrichment", "numericValue": 0.576}
{"querySequence": "SKEPFYVRCIK [MYO1D_Y586_YF]", "measuredQuantity": "phosphorylation enrichment", "numericValue": 0.354}
{"querySequence": "KSIQLYDTPFE [SHB_Y297_G293S_YF]", "measuredQuantity": "phosphorylation enrichment", "numericValue": 0.784}
{"querySequence": "KQQEIYQELTQ [CD209_Y239]", "measuredQuantity": "phosphorylation enrichment", "numericValue": 5.59}
{"querySequence": "FMRGMYFRMKD [PLA2G6_Y541_YF]", "measuredQuantity": "phosphorylation enrichment", "numericValue": 0.417}
{"querySequence": "SENYTYIWWLN [PSG4_Y271_K267E]", "measuredQuantity": "phosphorylation enrichment", "numericValue": 0.362}
{"querySequence": "SDVCMYRKNIY [SYNE2_Y570]", "measuredQuantity": "phosphorylation enrichment", "numericValue": 0.424}
{"querySequence": "AQAERYDDMAA [YWHAG_Y20_E15A]", "measuredQuantity": "phosphorylation enrichment", "numericValue": 0.439}
{"querySequence": "PPLMLYNPTTY [EGFR_Y270]", "measuredQuantity": "phosphorylation enrichment", "numericValue": 0.645}
{"querySequence": "CEAMEYLESKQ [BTK_Y511]", "measuredQuantity": "phosphorylation enrichment", "numericValue": 0.839}
{"querySequence": "FEEDSYSHVMA [FDPS_Y388_I391V_YF]", "measuredQuantity": "phosphorylation enrichment", "numericValue": 0.779}
{"querySequence": "FEHVGYTTLNR [CHN1_Y148_YF]", "measuredQuantity": "phosphorylation enrichment", "numericValue": 0.466}
{"querySequence": "HVPEEYKPKQG [SAXO2_Y37]", "measuredQuantity": "phosphorylation enrichment", "numericValue": 0.685}
{"querySequence": "PTTKTYFPHFY [HBA1_Y43_D48Y]", "measuredQuantity": "phosphorylation enrichment", "numericValue": 0.56}
{"querySequence": "KFVVVYFRETD [IL17RB_Y447_I451T_YF]", "measuredQuantity": "phosphorylation enrichment", "numericValue": 0.377}
{"querySequence": "EQKRFYNAMKK [SCN5A_Y1495_K1493R_YF]", "measuredQuantity": "phosphorylation enrichment", "numericValue": 0.441}
{"querySequence": "FLTSSYINIST [IL23R_Y178_YF]", "measuredQuantity": "phosphorylation enrichment", "numericValue": 0.44}
{"querySequence": "VHNLDYFKQTT [FGFR3_Y647_K650Q_YF]", "measuredQuantity": "phosphorylation enrichment", "numericValue": 0.542}
{"querySequence": "RVAFQYGVTDL [MYBPC3_Y340_I336V]", "measuredQuantity": "phosphorylation enrichment", "numericValue": 0.493}
{"querySequence": "PRLMLYNPTTY [EGFR_Y270_P266R]", "measuredQuantity": "phosphorylation enrichment", "numericValue": 0.526}
{"querySequence": "SMGMKYLEEKN [ZAP70_Y451]", "measuredQuantity": "phosphorylation enrichment", "numericValue": 0.434}
{"querySequence": "GNLLIYTELGK [HGD_Y166_F169L]", "measuredQuantity": "phosphorylation enrichment", "numericValue": 4.74}
{"querySequence": "TENAGYYFRIS", "measuredQuantity": "phosphorylation enrichment", "numericValue": 0.41}
{"querySequence": "NNHGNYIVLLG [ETFDH_Y172_R175L]", "measuredQuantity": "phosphorylation enrichment", "numericValue": 0.522}
{"querySequence": "KVALPYKPFFF [POLE_Y100_YF]", "measuredQuantity": "phosphorylation enrichment", "numericValue": 0.547}
{"querySequence": "VHNLDYYKETT [FGFR3_Y647_K650E]", "measuredQuantity": "phosphorylation enrichment", "numericValue": 0.367}
{"querySequence": "AGREIYESDKC [TTN_Y4424]", "measuredQuantity": "phosphorylation enrichment", "numericValue": 0.536}
{"querySequence": "YEEDSYSHVMA [FDPS_Y388_I391V]", "measuredQuantity": "phosphorylation enrichment", "numericValue": 0.587}
{"querySequence": "NTYEKYWLFYQ [GATM_Y103_P105L]", "measuredQuantity": "phosphorylation enrichment", "numericValue": 2.23}
